# System: blackgrass
# Test method notes: Test B pre/postemergence blackgrass
# Assay type: in vivo, Alopecurus myosuroides
# Condition description: Postemergence, Rate 250 g/ha; scale of 0 to 10, 0 is no effect, 10 is complete control
Recorded Blackgrass plant response rating by entry

Reported Blackgrass plant response rating of C#CC(C)n1c(=O)on(C(=O)N(c2ccccc2)C(C)C)c1=O (centres unmarked) : 8

Reported Blackgrass plant response rating of `CC(C)N(C(=O)n1oc(=O)n(CCC(=O)N(C)C)c1=O)c1ccc(F)cc1` : 6

====

# Tested on: cocklebur
# Test method notes: Test B pre/postemergence cocklebur
# Assay type: in vivo, Xanthium strumarium
# Condition description: Rate 500 g/ha, Postemergence; scale 0 to 10, 0 no effect, 10 complete control
Endpoint name: Plant response rating, Cocklebur
Write the value as a bare number.

1) CC(C)N(C(=O)n1oc(=O)n(C2CC3CCC2C3)c1=O)c1ccccc1 (stereo not drawn): 0
2) CC(C)N(C(=O)n1oc(=O)n(C2CCC2)c1=O)c1ccc(F)cc1F: 2
3) CCOC(=O)C(C)N(C(=O)n1oc(=O)n(C)c1=O)c1ccc(F)cc1 (stereo not drawn): 0
4) CC(C)N(C(=O)n1oc(=O)n(C2CC3CCC2C3)c1=O)c1ccc(F)cc1 (stereo not drawn): 0
5) CC(C)N(C(=O)n1oc(=O)n(C2(C)CC2)c1=O)c1ccc(F)cc1F: 2

Reported Plant response rating, Cocklebur of `CC(C)N(C(=O)n1oc(=O)n(C2(C)CC2)c1=O)c1ccc(Cl)cc1` : 2

====

Recorded Giant foxtail plant response rating by entry
# Tested on: giant foxtail
# Test method notes: Test B pre/postemergence giant foxtail
# Type: in vivo, Setaria faberii
# Condition description: Preemergence, Rate 500 g/ha; scale 0 (no effect) to 10 (complete control)
Write the value as a bare number.

// solved cases for Giant foxtail plant response rating follow
1) COc1cccc(C)c1-n1c(=O)on(C(=O)N(c2ccccc2)C(C)C)c1=O: 10
2) COc1ccc(-n2c(=O)on(C(=O)N(c3ccc(F)cc3)C(C)C)c2=O)cc1: 9
3) CC(C)N(C(=O)n1oc(=O)n(-c2ccccc2OC(F)(F)F)c1=O)c1ccc(F)cc1: 9

Reported Giant foxtail plant response rating of `CCN(Cc1ccccc1)C(=O)n1oc(=O)n(-c2ccccc2C)c1=O` : 0

====

# System: blackgrass
# Test method notes: Test B pre/postemergence blackgrass
# Assay type: in vivo, Alopecurus myosuroides
# Condition description: Postemergence, Rate 500 g/ha; scale 0 to 10, 0 is no effect, 10 is complete control
# Method: […] At the same time, these crop and weed species were also treated with postemergence applications of test chemicals formulated in the same manner. […] Treated plants and controls were maintained in a greenhouse for twelve to sixteen days, after which all species were compared to controls and visually evaluated. […]
Endpoint name: Plant response rating, Blackgrass
Write the value as a bare number.

// solved cases for Plant response rating, Blackgrass follow
1. COCCOCn1c(=O)on(C(=O)N(c2ccc(Cl)cc2)C(C)C)c1=O [Compound 535]: 8
2. CC(=O)OCCCCn1c(=O)on(C(=O)N(c2ccc(F)cc2F)C(C)C)c1=O [Compound 506]: 6
3. CCC=CCn1c(=O)on(C(=O)N(c2ccc(F)cc2F)C(C)C)c1=O [Compound 523]: 4

Item CC(C)N(C(=O)n1oc(=O)n(CC2CC2)c1=O)c1ccc(F)cc1F [Compound 509] ; assay system blackgrass; Plant response rating, Blackgrass reported as 9

Item CC(C)N(C(=O)n1oc(=O)n(CCCNC(=O)CCl)c1=O)c1ccccc1 [Compound 493] ; assay system blackgrass; Plant response rating, Blackgrass reported as 0
